Listed next: entries and their corresponding melting point.

Solved entries:
compound	experimental result
CC(C)n1nc(-c2nc(N3CCC(N(C)C)C3)c(N)nc2-c2ccccc2)ccc1=O (stereo not drawn)	150 to 152 °C
CC(C)n1nc(-c2nc(C#N)c(C(N)=O)nc2-c2ccccc2)ccc1=O	> 250 °C
Cn1nc(-c2nc(S(C)(=O)=O)c(N)nc2-c2ccccc2)ccc1=O	231 to 233 °C
CC(C)n1nc(-c2nc(-c3cccnc3)c(N)nc2-c2ccccc2)ccc1=O	224 to 225.5 °C
CC(C)n1nc(-c2nc(C#N)c(N)nc2-c2ccccc2Br)ccc1=O	240 to 243 °C

Name the recorded melting point for Cn1nc(-c2nc(-n3cccn3)c(N)nc2-c2ccccc2)ccc1=O .
187 to 189.5 °C

Name the recorded melting point for CC(C)n1nc(-c2nc(-n3cnc4ccccc43)c(N)nc2-c2ccccc2)ccc1=O .
> 250 °C

Name the recorded melting point for C=CCNc1nc(-c2ccc(=O)n(C(C)C)n2)c(-c2ccccc2)nc1N .
208 to 210 °C

* * *

Listed next: entries and their corresponding melting point.

Solved entries:
compound	experimental result
CC(C)n1nc(-c2nc(C#Cc3ccccn3)c(N)nc2-c2ccccc2)ccc1=O [Example 74]	245.5 to 247 °C
COc1ccc(-c2nc(N)c(C(N)=O)nc2-c2ccc(=O)n(C(C)C)n2)cn1 [Example 194]	250 to 252 °C
CC(C)n1nc(-c2nc(NCCN3CCOCC3)c(N)nc2-c2ccccc2)ccc1=O [Example 104]	230 to 232.5 °C
CC(C)n1nc(-c2nc(NC3CCN(Cc4ccccc4)C3)c(N)nc2-c2ccccc2)ccc1=O (centres unmarked) [Example 138]	86 to 91 °C

Name the recorded melting point for Cn1nc(-c2nc(C(N)=O)c(N)nc2-c2ccccc2)ccc1=O [Example 18] .
> 250 °C

Name the recorded melting point for CC(C)n1nc(-c2nc([S+](C)[O-])c(N)nc2-c2ccccc2)ccc1=O (centres unmarked) [Example 55] .
225 to 227 °C

Name the recorded melting point for CC(C)n1nc(-c2nc(C#N)c(C#N)nc2-c2ccccc2)ccc1=O [Example 4] .
201 to 202 °C

Name the recorded melting point for Cn1nc(-c2nc(-c3ccco3)c(N)nc2-c2ccccc2)ccc1=O [Example 89] .
186 to 188 °C

Name the recorded melting point for COc1ccc(N2CCN(c3nc(-c4ccc(=O)n(C(C)C)n4)c(-c4ccccc4)nc3N)CC2)cc1 [Example 116] .
194 to 196 °C

Name the recorded melting point for COc1ccc(CNc2cnc(-c3ccccc3)c(-c3ccc(=O)n(C(C)C)n3)n2)cc1 [Example 49] .
173 to 174 °C

Name the recorded melting point for CC(C)n1nc(-c2nc(N(C)C)c(N)nc2-c2ccccc2)ccc1=O [Example 96] .
174 to 176 °C

Name the recorded melting point for COc1ccc(CNc2nc(-c3ccccc3)c(-c3ccc(=O)n(C)n3)nc2C#N)cc1 [Example 16] .
166.5 to 168 °C

Name the recorded melting point for Cn1nc(-c2nc(NCc3ccccc3)c(N)nc2-c2ccccc2)ccc1=O [Example 144] .
> 250 °C

Name the recorded melting point for COC(=O)c1nc(-c2ccc(=O)n(C(C)C)n2)c(-c2ccccc2)nc1OC [Example 24] .
170 to 171 °C

Name the recorded melting point for Cn1nc(-c2nc(-c3ccccc3)c(N)nc2-c2ccccc2)ccc1=O [Example 85] .
220 to 221.5 °C

Name the recorded melting point for CC(C)n1nc(-c2nc(-c3cn[nH]c3)c(N)nc2-c2ccccc2)ccc1=O [Example 90] .
> 250 °C

Name the recorded melting point for Cn1nc(-c2nc(OCCc3ccccc3)c(N)nc2-c2ccccc2)ccc1=O [Example 187] .
156 to 159 °C
